Data origin, for the record: ChEMBL document CHEMBL3879901

Each item that follows carries a reported pIC50.
Target: PI3-kinase p110-delta/p85-alpha (Homo sapiens, UniProt O00329)
Sequence (P27986 whole entry): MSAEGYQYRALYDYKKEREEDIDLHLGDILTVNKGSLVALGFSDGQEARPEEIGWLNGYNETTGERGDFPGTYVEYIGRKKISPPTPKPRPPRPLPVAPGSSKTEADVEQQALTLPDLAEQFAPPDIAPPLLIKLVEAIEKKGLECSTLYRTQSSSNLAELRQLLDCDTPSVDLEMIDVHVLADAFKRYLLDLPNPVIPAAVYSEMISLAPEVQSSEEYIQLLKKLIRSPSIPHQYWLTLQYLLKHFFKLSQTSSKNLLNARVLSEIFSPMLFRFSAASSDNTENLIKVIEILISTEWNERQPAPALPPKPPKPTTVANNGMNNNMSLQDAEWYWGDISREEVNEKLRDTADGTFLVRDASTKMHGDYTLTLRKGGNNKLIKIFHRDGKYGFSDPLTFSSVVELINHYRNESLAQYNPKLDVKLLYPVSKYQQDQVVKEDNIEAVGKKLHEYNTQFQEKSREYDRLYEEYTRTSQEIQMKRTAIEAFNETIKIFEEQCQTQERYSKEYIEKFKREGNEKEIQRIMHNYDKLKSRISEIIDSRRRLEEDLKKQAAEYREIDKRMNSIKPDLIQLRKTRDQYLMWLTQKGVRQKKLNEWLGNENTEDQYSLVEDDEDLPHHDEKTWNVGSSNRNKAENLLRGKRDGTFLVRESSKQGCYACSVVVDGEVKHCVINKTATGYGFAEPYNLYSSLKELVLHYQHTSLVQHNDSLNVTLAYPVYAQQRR
Sequence (O00329 whole entry): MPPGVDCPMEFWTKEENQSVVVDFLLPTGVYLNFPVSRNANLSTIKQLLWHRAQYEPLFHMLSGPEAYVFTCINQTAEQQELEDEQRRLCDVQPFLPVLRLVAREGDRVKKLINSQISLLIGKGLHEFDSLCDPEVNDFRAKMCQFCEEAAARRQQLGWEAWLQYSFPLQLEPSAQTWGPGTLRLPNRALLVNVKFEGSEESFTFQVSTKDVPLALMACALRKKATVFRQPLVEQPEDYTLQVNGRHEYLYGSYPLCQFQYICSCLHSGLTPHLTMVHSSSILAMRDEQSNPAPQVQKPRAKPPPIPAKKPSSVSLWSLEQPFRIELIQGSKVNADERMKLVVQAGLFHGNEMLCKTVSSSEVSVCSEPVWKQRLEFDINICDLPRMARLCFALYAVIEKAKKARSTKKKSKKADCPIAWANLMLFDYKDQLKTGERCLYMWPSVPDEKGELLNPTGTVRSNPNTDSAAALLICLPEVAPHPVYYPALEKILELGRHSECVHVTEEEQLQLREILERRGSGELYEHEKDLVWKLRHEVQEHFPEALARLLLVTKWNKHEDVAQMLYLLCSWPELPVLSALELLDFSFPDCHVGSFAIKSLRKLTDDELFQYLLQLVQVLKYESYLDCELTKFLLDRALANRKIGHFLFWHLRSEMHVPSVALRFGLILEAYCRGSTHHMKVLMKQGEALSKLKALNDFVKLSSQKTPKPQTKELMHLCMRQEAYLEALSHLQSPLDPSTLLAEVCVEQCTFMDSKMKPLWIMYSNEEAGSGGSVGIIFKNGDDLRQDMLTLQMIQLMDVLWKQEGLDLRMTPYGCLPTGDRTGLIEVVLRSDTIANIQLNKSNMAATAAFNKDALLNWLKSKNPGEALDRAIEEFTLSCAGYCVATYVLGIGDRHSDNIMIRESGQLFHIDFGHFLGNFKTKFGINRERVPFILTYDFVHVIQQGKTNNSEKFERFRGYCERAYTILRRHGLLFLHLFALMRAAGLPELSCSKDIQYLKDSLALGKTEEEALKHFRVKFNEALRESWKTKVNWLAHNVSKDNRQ
Experiment: Inhibition of N-terminal His6-tagged recombinant full-length human p110delta/untagged recombinant full length p85alpha expressed in baculovirus infected Sf21 cells using phosphatidylinositol as substrate in presence of gamma-32P-ATP after 5 mins by thin layer chromatographic method
pIC50: −log10 of the molar value.

{"input-smiles": "Cc1cccc2cc([C@H](C)Nc3ncnc4[nH]nc(C(N)=O)c34)n(-c3ccccc3)c(=O)c12", "pIC50": "> 7.00"}
{"input-smiles": "CC(=O)Nc1nc2ccc(-c3nn(Cc4cc5cccc(F)c5c(=O)n4C(C)C)c4ncnc(N)c34)cc2s1", "pIC50": "> 7.00"}
{"input-smiles": "Cc1cccc2cc(Cn3nc(-c4ccc5oc(N)nc5c4)c4c(N)ncnc43)n(-c3ccccc3)c(=O)c12", "pIC50": "> 7.00"}
{"input-smiles": "Cc1cccc2cc([C@H](C)Nc3ncnc4[nH]nc(C(N)=O)c34)n(C3CC3)c(=O)c12", "pIC50": "> 7.00"}
{"input-smiles": "Cc1ccccc1-n1c(Cn2nc(-c3nn[nH]n3)c3c(N)ncnc32)cc2cccc(C)c2c1=O", "pIC50": "> 7.00"}
{"input-smiles": "Cc1cccc2cc([C@H](C)Nc3nc(N)nc4[nH]cnc34)n(-c3ccccc3)c(=O)c12", "pIC50": "> 7.00"}
{"input-smiles": "CCn1c(Cn2nc(-c3ccc4nc(NC(C)=O)sc4c3)c3c(N)ncnc32)cc2cccc(C)c2c1=O", "pIC50": "> 7.00"}
{"input-smiles": "COc1ccccc1-n1c(Cn2nc(-c3cccc(O)c3)c3c(N)ncnc32)cc2cccc(C)c2c1=O", "pIC50": "> 7.00"}
{"input-smiles": "Cc1cccc2cc([C@H](C)Nc3ncnc4[nH]nc(Cl)c34)n(C3CC3)c(=O)c12", "pIC50": "> 7.00"}
{"input-smiles": "CC(=O)Nc1nc2ccc(-c3nn(Cc4cc5cccc(C)c5c(=O)n4-c4ccccc4)c4ncnc(N)c34)cc2s1", "pIC50": "> 7.00"}
{"input-smiles": "Cc1ccccc1-n1c(Cn2nc(-c3ccc4oc(N)nc4c3)c3c(N)ncnc32)cc2cccc(C)c2c1=O", "pIC50": "> 7.00"}
{"input-smiles": "Cc1cccc2cc(Cn3nc(I)c4c(N)ncnc43)n(C3CC3)c(=O)c12", "pIC50": "> 7.00"}
{"input-smiles": "Cc1cccc2cc(Cn3nc(-c4ccc(Cl)c(O)c4)c4c(N)ncnc43)n(-c3ccccc3F)c(=O)c12", "pIC50": "> 7.00"}
{"input-smiles": "Cc1cccnc1-n1c(Cn2nc(-c3cc(O)cc(F)c3)c3c(N)ncnc32)cc2ccccc2c1=O", "pIC50": "> 7.00"}
{"input-smiles": "Cc1cccc2cc(Cn3nc(-c4cc(O)cc(F)c4)c4c(N)ncnc43)n(-c3ccccc3OCCN3CCOCC3)c(=O)c12", "pIC50": "> 7.00"}
{"input-smiles": "Cc1cccc2cc(Cn3nc(-c4cc(O)cc(F)c4)c4c(N)ncnc43)n(-c3ccccc3O)c(=O)c12", "pIC50": "> 7.00"}
{"input-smiles": "CC(C)n1c(Cn2nc(-c3cccc(O)c3)c3c(N)ncnc32)cc2cccc(Cl)c2c1=O", "pIC50": "> 7.00"}
{"input-smiles": "CNC(=O)Nc1nc2ccc(-c3nn(Cc4cc5cccc(C)c5c(=O)n4-c4ccccc4C)c4ncnc(N)c34)cc2s1", "pIC50": "> 7.00"}
{"input-smiles": "CC(=O)Nc1nc2ccc(-c3nn(Cc4cc5cccc(C)c5c(=O)n4-c4cccc(F)c4)c4ncnc(N)c34)cc2s1", "pIC50": "> 7.00"}
{"input-smiles": "CCc1ccccc1-n1c(Cn2nc(I)c3c(N)ncnc32)cc2cccc(C)c2c1=O", "pIC50": "> 7.00"}
{"input-smiles": "Cc1cccc2cc(Cn3nc(I)c4c(N)ncnc43)n(-c3ccccc3C(C)C)c(=O)c12", "pIC50": "> 7.00"}
{"input-smiles": "Cc1cccc2cc(Cn3nc(-c4cccc(O)c4)c4c(N)ncnc43)n(-c3ccccc3Cl)c(=O)c12", "pIC50": "> 7.00"}
{"input-smiles": "C=Cc1nn(Cc2cc3cccc(C)c3c(=O)n2-c2ccccc2C)c2ncnc(N)c12", "pIC50": "> 7.00"}
{"input-smiles": "Nc1ncnc2c1c(I)nn2Cc1cc2cccc(F)c2c(=O)n1-c1ccccc1F", "pIC50": "> 5.00"}
{"input-smiles": "Cc1cccc2cc(Cn3nc(C#CCO)c4c(N)ncnc43)n(-c3ccccc3F)c(=O)c12", "pIC50": "> 7.00"}
{"input-smiles": "C=Cc1nn(Cc2cc3cccc(C)c3c(=O)n2-c2ccccc2F)c2ncnc(N)c12", "pIC50": "> 6.00"}
{"input-smiles": "COc1ccc(-c2nn(Cc3cc4cccc(C)c4c(=O)n3-c3ccccc3C)c3ncnc(N)c23)cc1", "pIC50": "> 6.00"}
{"input-smiles": "Cc1ccccc1-n1c(Cn2nc(-c3ccc(Cl)cc3)c3c(N)ncnc32)cc2cccc(C)c2c1=O", "pIC50": "> 6.00"}
{"input-smiles": "COc1cc(-c2nn(Cc3cc4cccc(C)c4c(=O)n3-c3ccccc3C)c3ncnc(N)c23)ccc1Cl", "pIC50": "> 6.00"}
{"input-smiles": "CC(=O)Nc1nc2ccc(-c3nn(Cc4cc5cccc(C)c5c(=O)n4C4CCC4)c4ncnc(N)c34)cc2s1", "pIC50": "> 7.00"}
{"input-smiles": "Nc1ncnc2c1c(-c1cccc(O)c1)nn2Cc1cc2cccc(F)c2c(=O)n1-c1ccccc1F", "pIC50": "> 6.00"}
{"input-smiles": "Cc1ccccc1-n1c(Cn2nc(C#C[C@H](C)O)c3c(N)ncnc32)cc2cccc(C)c2c1=O", "pIC50": "> 6.00"}
{"input-smiles": "Cc1ccccc1-n1c(Cn2nc(-c3ccc(Cl)c(O)c3)c3c(N)ncnc32)cc2cccc(C)c2c1=O", "pIC50": "> 7.00"}
{"input-smiles": "Cc1ccccc1-n1c(Cn2nc(CN3CCOCC3)c3c(N)ncnc32)cc2cccc(C)c2c1=O", "pIC50": "> 5.00"}
{"input-smiles": "Cc1cccc2cc(Cn3nc(-c4ccn[nH]4)c4c(N)ncnc43)n(-c3ccccc3F)c(=O)c12", "pIC50": "> 6.00"}
